System: COLO 205
Assay: NCI tumour cell line growth inhibition, 48 h
Activity calls are given as the source filed them. No stated cut-off is given here; in the data, active = GI50 up to about 1.1 µM and inactive = higher.
Measured GI50 values are reported for all entries that follow.
property name: GI50

INSERT INTO results (molecule, result) VALUES
  ('COc1nc2c(c(=O)n1C)NC(C(O)C(O)CO)C=N2 (stereo not given)', '> 10 µM (inactive)'),
  ('CC(=O)Nc1ccc(/C=C(\NC(=O)c2ccccc2)c2nc3ccc4c(c3[nH]2)C(=O)c2ccccc2C4=O)cc1', '57.8 µM (inactive)'),
  ('O=C(CNC(=O)OCc1ccccc1)Oc1ccccc1', '> 100 µM (inactive)'),
  ('O=C1CC2C=CC1C2CO (stereo not given)', '> 100 µM (inactive)'),
  ('CCCCCCC1OC23OC1CCC2C(O)CCC3O (stereo not given)', '> 100 µM (inactive)'),
  ('C=C1C(=O)C([Si](C)(C)C)=C2C=C(C)C3(CC3)C12C (stereo not given)', '14.2 µM (inactive)'),
  ('C[N+](C)(C)CC(=O)N/N=C/c1oc(-c2c(O)ccc3ccccc23)c(-c2c(O)ccc3ccccc23)c1[N+](=O)[O-]', '21.9 µM (inactive)'),
  ('C[C@]12CCc3nonc3C1CC[C@@H]1C2CC[C@]2(C)C(=O)/C(=N\O)CC12 (stereo not given in full)', '54.3 µM (inactive)'),
  ('O=C1NC(=O)C(CCO)(c2ccccc2)C(=O)N1', '> 100 µM (inactive)'),
  ('COc1cc(COC(=O)N2CC=CC2C(=O)O)c([N+](=O)[O-])cc1OC (stereo not given)', '> 100 µM (inactive)');

----------
Tested on: RXF 393
Assay: NCI tumour cell line growth inhibition, 48 h
Calls of active or inactive are those of the source. Rule as the data show it: active = GI50 up to about 1.1 µM and inactive = higher.
property name: GI50

INSERT INTO assay_data (molecule, result) VALUES
  ('OC(O)(C(F)(F)F)C(F)(F)F', '> 100 µM (inactive)'),
  ('O=C1c2ccccc2C(=O)N1CCN(CCN1C(=O)c2ccccc2C1=O)Cc1ccccc1', '> 100 µM (inactive)'),
  ('COc1ccc2c(c1)C(=O)CC(N)C2 (stereo unspecified)', '> 100 µM (inactive)'),
  ('COc1ccc(NC(=O)CSc2nnc(-c3ccc(NC(C)=O)cc3)o2)cc1', '14.5 µM (inactive)'),
  ('O=S(=O)(Sc1ccc(Cl)cc1)c1ccc(Cl)cc1', '15.7 µM (inactive)'),
  ('CCOC(=O)C1Cc2c(ccc(OC)c2OC)C(=O)C1N (stereo unspecified)', '> 100 µM (inactive)'),
  ('O=C(O)C1CC(O)CN1 (stereo unspecified)', '> 100 µM (inactive)'),
  ('Cc1cc2c(cc1C)[n+]([O-])c(C(=O)/C=C/c1ccccc1[N+](=O)[O-])c(C)[n+]2[O-]', '37.4 µM (inactive)'),
  ('Nc1ncnc2c(C3OC(CO)C(O)C3O)c[nH]c12 (stereo unspecified)', '0.00301 µM (active)'),
  ('COC(=O)C1=C(O)c2ccc(Cl)cc2S(=O)(=O)N1C', '> 100 µM (inactive)'),
  ('C[C@]12CC[C@@H]3c4ccc(OC(=O)c5ccccc5)cc4CC[C@H]3[C@@H]1CCC2OC(=O)c1cccc2c(=O)c3ccccc3[nH]c12 (stereo partly specified)', '14.4 µM (inactive)'),
  ('CN1C(=O)C23CCCCC2CC1(c1ccccc1)S3 (stereo unspecified)', '59.2 µM (inactive)'),
  ('CC1(C)Oc2ccc3c(=O)c4ccccc4oc3c2C1C(=O)O (stereo unspecified)', '> 100 µM (inactive)'),
  ('CN(C)CCOc1ccc(-c2c(Oc3ccc(Cl)cc3)c(=O)oc3ccccc23)cc1', '8.09 µM (inactive)'),
  ('Cc1ccc(C(=O)Nc2ccc(CP(=O)(O)O)cc2CP(=O)(O)O)cc1NC(=O)c1cccc(N)c1', '> 100 µM (inactive)'),
  ('COc1cc(/C=C(\NC(=O)c2ccccc2)c2nc3ccc4c(c3[nH]2)C(=O)c2ccccc2C4=O)cc(OC)c1OC', '22.8 µM (inactive)'),
  ('Cn1nc(-c2ccccc2)c2c(/C=C/c3ccc(Cl)cc3)onc2c1=O', '39.8 µM (inactive)'),
  ('C=C1C(=O)O[C@H]2[C@H]1CC(=O)/C(C)=C/CC[C@@]1(C)O[C@@H]21', '0.44 µM (active)'),
  ('CC(=O)Oc1ccc2c(c1)oc1c3ccc(OC(C)=O)cc3n(C)c(=O)c21', '38.7 µM (inactive)'),
  ('CC1=C(C)CC2(SC1)C(=O)c1ccccc1C2=O', '> 100 µM (inactive)'),
  ('Cc1ccc(-n2c(C)nc3c2C(=O)c2ccccc2C3=O)cc1', '> 100 µM (inactive)');

----------
System: DLD-1
Experiment: NCI tumour cell line growth inhibition, 48 h
Calls of active or inactive are those of the source. Rule as the data show it: active = GI50 up to about 1.1 µM and inactive = higher.
Outcomes: Yes for active, No for inactive

INSERT INTO results (compound, subject_of_test, category_label) VALUES
  ('N#CC1=C(O)NC(O)=C(C#N)C1c1c(Cl)cccc1Cl', 'DLD-1', 'No'),
  ('c1ccc2c(c1)NCc1cc3ccccc3nc1O2', 'DLD-1', 'No'),
  ('Cc1cc2c(cc1C)[n+]([O-])c(C(=O)/C=C/c1ccccc1[N+](=O)[O-])c(C)[n+]2[O-]', 'DLD-1', 'No'),
  ('CC1=C(C)CC2(SC1)C(=O)c1ccccc1C2=O', 'DLD-1', 'No'),
  ('COC(=O)c1[nH]c(=S)[nH]c(=O)c1-c1ccc(Cl)cc1', 'DLD-1', 'No'),
  ('C[C@]12CCC(=O)C=C1CC[C@@H]1C2CC[C@]2(C)c3nn(-c4ccccc4)nc3CC12 (some centres undefined)', 'DLD-1', 'No'),
  ('COc1cc(C(C)O)c[n+](CCc2c[nH]c3ccccc23)c1 (centres undefined)', 'DLD-1', 'No'),
  ('CCOC(=O)C1Cc2c(ccc(OC)c2OC)C(=O)C1N (centres undefined)', 'DLD-1', 'No'),
  ('CN1CC[C@]2(C)c3c(O)cccc3CC3CCCC1C32C (some centres undefined)', 'DLD-1', 'No'),
  ('CC1(Br)C(=O)NC(=O)N([C@H]2C[C@H](O)[C@@H](CO)O2)C1N=[N+]=[N-] (some centres undefined)', 'DLD-1', 'No'),
  ('C[C@]12CCc3nonc3C1CC[C@@H]1C2CC[C@]2(C)C(=O)/C(=N\O)CC12 (some centres undefined)', 'DLD-1', 'No'),
  ('CC(=O)CN(Cc1cc(C)c2c(c1)c1ccccc1n2Cc1ccccc1)S(=O)(=O)c1ccc(C)cc1', 'DLD-1', 'No'),
  ('COc1ccccc1-n1c(NN)nc2ccc(Br)cc2c1=O', 'DLD-1', 'No'),
  ('COC1C(O)C(n2ncc3c(SC)nc(SC)nc32)OC1C(O)CO (centres undefined)', 'DLD-1', 'No'),
  ('CCc1cccc(CC)c1NC(=O)C1=C(C)NC(C)=C(C(=O)Nc2c(CC)cccc2CC)C1c1ccc([N+](=O)[O-])cc1', 'DLD-1', 'No'),
  ('CC(=O)SCCC1c2[nH]c3ccccc3c2CCN1O (centres undefined)', 'DLD-1', 'No'),
  ('CCCCCCCCCCCCCCC1OC(=O)c2ccccc21 (centres undefined)', 'DLD-1', 'No'),
  ('Cn1nc(-c2ccccc2NC(=O)C(F)(F)F)c(=O)n(C)c1=S', 'DLD-1', 'No'),
  ('Clc1ccc(SC(/C=C/NNC2=NN=C(c3ccccc3)C(c3ccccc3)N2)c2ccccc2)cc1 (centres undefined)', 'DLD-1', 'No'),
  ('Cc1cc(Cl)ccc1N1C(=O)C(=O)C(c2nc3ccccc3s2)C(=O)C1=O', 'DLD-1', 'No'),
  ('O=C(O/N=C1/CCC/C1=C\c1ccccc1)c1ccc([N+](=O)[O-])cc1', 'DLD-1', 'No'),
  ('CCOC(=O)c1c[nH]c2cc3c(cc2c1=O)CCS3(=O)=O.CCOC(=O)c1c[nH]c2ccc3c(c2c1=O)S(=O)(=O)CC3', 'DLD-1', 'No'),
  ('N#Cc1c(-c2ccccc2)cc(-c2cccs2)c(C#N)c1N', 'DLD-1', 'No'),
  ('Cc1ccccc1NC(=O)C(=O)CC(=O)c1c(C)[n+]([O-])c2ccccc2[n+]1[O-]', 'DLD-1', 'No'),
  ('COc1cc2c(cc1O)[C@H](C)C(c1ccc(OC)c(OC)c1)O2 (some centres undefined)', 'DLD-1', 'No'),
  ('CC(=O)Nc1ccc(/C=N\N2C(=O)c3ccccc3C2=O)cc1', 'DLD-1', 'No'),
  ('COc1cc(-c2cc(CCC(=O)Nc3ccccc3[N+](=O)[O-])n(-c3ccc([N+](=O)[O-])cc3[N+](=O)[O-])n2)ccc1O', 'DLD-1', 'No'),
  ('Nc1ncnc2c(C3OC(CO)C(O)C3O)c[nH]c12 (centres undefined)', 'DLD-1', 'Yes'),
  ('c1ccc2c(c1)[nH]c1c2nc2ccccn21', 'DLD-1', 'No'),
  ('COC1CC(Br)(C#N)C1 (centres undefined)', 'DLD-1', 'No'),
  ('COC(=O)/C(=C/c1ccc(OC)cc1)c1cc(OC)c(OC)c(OC)c1', 'DLD-1', 'No'),
  ('COC1OC(CO)C(O)C(OC(C)=O)C1NC(=O)N(CCCl)N=O (centres undefined)', 'DLD-1', 'No'),
  ('CCOCC(=O)N[C@H]1CCc2cc(OC)c(OC)c(OC)c2-c2ccc(SC)c(=O)cc21', 'DLD-1', 'Yes'),
  ('COCCOCOc1ccc(OCOCCOC)c2c1C(=O)c1ccccc1C2=O', 'DLD-1', 'No'),
  ('Cc1nnc2n1N=C(c1ccccc1)C(c1ccccc1)S2 (centres undefined)', 'DLD-1', 'No'),
  ('CC(=O)n1c2c(c(=O)n1-c1ccccc1)[S+]([O-])CCC2 (centres undefined)', 'DLD-1', 'No'),
  ('C/C(=N\NC(=O)CC(=O)N(C(=O)c1ccc(Cl)cc1)c1ccc(C)cc1)c1ccccc1O', 'DLD-1', 'No'),
  ('Cc1ccc(S(=O)(=O)N(C=O)N=C2CCN(Cc3ccccc3)CC2)cc1', 'DLD-1', 'No'),
  ('O=C1NC(=O)C(CCO)(c2ccccc2)C(=O)N1', 'DLD-1', 'No'),
  ('CC(=O)/C(=C\c1ccccc1O)C(=O)Nc1ccccc1C', 'DLD-1', 'No'),
  ('COc1ccc2c(c1)C(=O)Cc1ccccc1CC2', 'DLD-1', 'No'),
  ('CC(CNCCCNCCNCCCNCO)[N+](=O)[O-] (centres undefined)', 'DLD-1', 'No'),
  ('COc1ccccc1CCc1cc(OC)c(OC)c(OC)c1', 'DLD-1', 'No'),
  ('O=S(=O)(Sc1ccc(Cl)cc1)c1ccc(Cl)cc1', 'DLD-1', 'No');
